Test system: MS2 coat protein
test-description: apparent KD of MS2 coat protein; designed switch direction (-1 OFF switch, 1 ON switch): -1; higher = weaker reporter binding
measurement-setup: Eterna round: R95; input ligand: microRNA oligo, concentration not stated
Classify on apparent KD of MS2 coat protein using group A: < 30 nM; group B: ≥ 30 nM and < 100 nM; group C: ≥ 100 nM

>  <monomer-sequence>
GCCGGAGCAGGAUAUCUAAUAUAUCACAUGAGGAUCACCCAUGUCCAGCGAAAGCUGGAGGGAGAAGGGCUCUGGC [Fiskers Ex 5 - 22] (puzzle: Exclusion 5)

>  <answer-label>
group C

$$$$
>  <monomer-sequence>
AGUGGUAGUAUCCGAUCCUACAUGAGGAUCACCCAUGUAGCUAGACGUGCACGCGAUGCUCGUCAGACUACCAGAUG [salish99_TOv1_r3_040] (puzzle: Sensor v3, turn-off variant 1)

>  <answer-label>
group A

$$$$
>  <monomer-sequence>
AGUGCUGACACGUUGGUGUUAGUACCAUAAGCUUGUGAUACAUGAGGAUCACCCAUGUCCUCAUAAGCUCGUCUUAU [salish99_TOv2_r2_097] (puzzle: Sensor v3, turn-off variant 2)

>  <answer-label>
group C

$$$$

Prompt: Tag the class for ACCUUACAUGAGGAUCACCCAUGUCAGGAUAUCUCGGGCGGCCAAGGGCCGGCCGCCCAGAGAAGGGACGAGGA [Inusla] (puzzle: Exclusion 1)
Completion: group A

Prompt: Tag the class for GAGAAUUCAUAGGAUAUCGUAUGGAUAAUUUAACGAGAAGGAUGAACAUGAGGAUCACCCAUGUGGUAUCAUGG [salish99_ex6_r3_002] (puzzle: Exclusion 6)
Completion: group B

Prompt: Tag the class for CCGGAAAUGCAGGAUAUCGUAUCGGAUACGAUACGAGAAGGGUAGACAUGAGGAUCACCCAUGUGUCCUACCGG [Fiskers Ex 6 - 50] (puzzle: Exclusion 6)
Completion: group B
